- target-system: S1P1 (Homo sapiens)
- Sequence (P21453 whole entry): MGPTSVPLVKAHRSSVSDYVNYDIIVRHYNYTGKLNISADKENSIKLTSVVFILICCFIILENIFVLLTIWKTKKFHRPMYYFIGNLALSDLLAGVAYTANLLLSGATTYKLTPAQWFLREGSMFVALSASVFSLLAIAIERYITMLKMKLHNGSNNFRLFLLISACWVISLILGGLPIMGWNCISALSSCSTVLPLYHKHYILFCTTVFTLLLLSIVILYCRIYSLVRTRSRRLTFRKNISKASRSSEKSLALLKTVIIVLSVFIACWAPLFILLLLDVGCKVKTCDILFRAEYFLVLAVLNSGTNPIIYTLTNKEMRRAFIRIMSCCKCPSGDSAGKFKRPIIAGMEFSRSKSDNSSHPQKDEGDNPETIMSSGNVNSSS
- test-summary: in vitro functional assay
pEC50: −log10 of the molar value.
quantity-kind: pEC50

Here's what some known entries look like.
O=C(O)C1CCN(c2ccc3oc(-c4ccc(-c5ccccc5OCCF)c(C(F)(F)F)c4)nc3c2)CC1 [Compound 18b] : 8.52
O=C(O)C1CCN(c2ccc3oc(-c4ccc(-c5ccc(C(F)(F)F)cc5)c(C(F)(F)F)c4)nc3c2)CC1 [Compound 18d] : 8.35
O=C(O)C1CCN(c2ccc3oc(-c4ccc(-c5ccc(OCCF)cc5)c(C(F)(F)F)c4)nc3c2)CC1 [Compound 18c] : 7.95
O=C(O)C1CCN(c2ccc3oc(-c4ccc(-c5ccc(F)cc5)c(C(F)(F)F)c4)nc3c2)CC1 [Compound 18a] : 9.12

P = O=C(O)c1ccc(-c2ccc3oc(-c4ccc(-c5ccc(F)nc5)c(C(F)(F)F)c4)nc3c2)s1 [Compound 16]
Q = COc1cccc(-c2ccc(-c3nc4cc(N5CCC(C(=O)O)CC5)ccc4o3)cc2C(F)(F)F)c1 [Compound 18e]
Query block: Which value of pEC50 is numerically greater: that of P or that of Q ? Field: selected label. Fill in the label of the entry you choose.
Result block: P
